measured.target: Torsin-1A-interacting protein 2 (Homo sapiens)
procedure.details: small molecules binding lysate-expressed LULL1 – cell lysate, human LULL1 lysate, 635/667 nm fluorescence, primary screen (AID 1092);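 also: probe is lysate of COS7 cells overexpressing human LULL1; score merges per-feature 667 nm fluorescence with signal-to-noise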
condition.details: small-molecule microarray, hLULL1 lysate binding, 635 nm fluorescence; higher = more signal
Provide the reported composite z-score of each item.

[
  {
    "molecule": "C=CCN1C(=O)[C@@]2(O[C@@H](CCn3cc([C@H](O)c4ccccc4)nn3)[C@H]([Si](C)(C)c3ccc(OC)cc3)[C@H]2C)c2cc(N3C(=O)c4cccc5cccc3c45)ccc21",
    "composite z-score": 1.5
  }
]

Parameters: items (list). Returns: composite z-score for each item.
1. COC(=O)[C@@]1(Cc2ccc(F)cc2)[C@H]2c3cc(C(=O)N4CCCC4)n(CCc4ccccn4)c3C[C@H]2CN1C(=O)c1ccccc1
2. CC(C)C(=C=CC[C@H](O)c1ccccc1OCCO)C[C@H](O)c1cc(Cl)cc(Cl)c1O
3. COC(=O)C1(Cc2ccccc2)C=C2C(=C(C)C(=O)C2C)CN1 (stereo unspecified)
4. [N-]=[N+]=NCc1ccccc1[C@@H]1OC(c2ccc(OCCCO)cc2)=N[C@]1(Cc1ccccc1N=[N+]=[N-])C(=O)O
5. CCN(CC)c1ccc(N2CC=CC34O[C@@H]5C=CCCOC(=O)C5[C@H]3C(=O)N(C(C)CO)[C@@H]4C2=O)cc1 (stereo partly specified)

[2.89, 2.71, 2.04, 3.13, 2.11]

* * *

measured.target: Torsin-1A-interacting protein 1 (Homo sapiens)
procedure.details: compound microarray binding of lysate hLAP1 – cell lysate, small-molecule microarray, COS7 lysate, 635/667 nm fluorescence, primary screen (AID 1116)
condition.details: 635 nm fluorescence, higher = more signal
Response key: yes (1) means composite z-score >= 0.2; no (0) means composite z-score < 0.2.

[
  {
    "compound": "CCCCCCc1nc(-c2ccc(-c3ccc(Cl)c(Cl)c3)o2)cc2c1[Si](C(C)C)(C(C)C)OC2",
    "discrete.label": "no (0)"
  }
]

Check this compound for composite z-score at or above 0.2: [N-]=[N+]=Nc1ccccc1[C@H]1OC(c2ccc(OCCCO)cc2)=N[C@@]1(Cc1ccccc1)C(=O)NCC(O)CO (stereo not given in full)
yes (1)

Check this compound for composite z-score at or above 0.2: C[C@@H]1NC(=O)C([C@@H](C)OCc2ccccc2)NC(=O)[C@@]23C(=O)N[C@@H](Cc4ccccc4)C2[C@H](C)[C@@]2(C)O[C@H]2C3/C=C/C/C=C\CNC1=O (stereo not given in full)
no (0)

Check this compound for composite z-score at or above 0.2: "O=C(O)[C@H](Cc1ccccc1)n1cc(C2(O)CCCCC2)nn1"
yes (1)

Check this compound for composite z-score at or above 0.2: "CN1C(=O)[C@@H]2[C@@H](CC(COc3ccccc3)=C3[C@@H](CCc4ccccc4)OB(O)C[C@@H]32)C1=O"
no (0)

Check this compound for composite z-score at or above 0.2: Cc1ccc(C(C)CC(O)C2C=CC3C(=O)N(C)C(=O)C3N2Nc2ccccc2)o1 (stereo not given)
no (0)

Check this compound for composite z-score at or above 0.2: "COC(=O)C[C@H]1O[C@@]2(C[C@@H]1[Si](C)(C)C)C(=O)N(C)c1ccccc12"
no (0)

Check this compound for composite z-score at or above 0.2: CC(C)(C)N1CC=CC23O[C@@H]4/C=C\CCCOC(=O)C4[C@H]2C(=O)N(CCCCCO)[C@@H]3C1=O (stereo not given in full)
no (0)

Check this compound for composite z-score at or above 0.2: "CC(C)NC(=O)[C@@]1(C)c2ccccc2C(=O)N(Cc2ccccc2)[C@H]1c1ccc(CO)cc1"
no (0)

Check this compound for composite z-score at or above 0.2: [N-]=[N+]=NCc1ccccc1[C@@H]1OC(c2ccc(OCCCO)cc2)=N[C@]1(Cc1ccccc1N=[N+]=[N-])C(=O)NCC(O)CO (stereo not given in full)
yes (1)

* * *

System: XIP peptide (Xip251-270)
procedure.details: compounds binding XIP fragment 251-270 – biochemical, small-molecule microarray, fluorescence 635/667 nm, 0.5 µg/mL protein, primary screen (AID 1183)
condition.details: fluorescence 635 nm, higher = more signal
Provide the reported composite z-score of each item.
Numbers only.

Study these solved cases before continuing.
[
  {
    "compound": "C=C(CCCC)/C(=C/C[C@H](OC(=O)c1ccncc1)c1cccc(OCCO)c1)c1cnc2ccccc2c1",
    "measure.name": "composite z-score",
    "value": 0.654
  },
  {
    "compound": "COC(=O)[C@@]1(Cc2ccc(OC)cc2)[C@H]2c3cc(C(=O)N4CCCC4)n(Cc4ccc(C(F)(F)F)nc4)c3C[C@H]2CN1C(=O)c1ccccc1",
    "measure.name": "composite z-score",
    "value": -0.39
  },
  {
    "compound": "O=C1OCCC=C[C@H]2OC34C=CCN(c5ccc6ccccc6c5)C(=O)[C@H]3N(CCO)C(=O)[C@@H]4C12 (stereo partly drawn)",
    "measure.name": "composite z-score",
    "value": 0.569
  }
]

Parameters: items (list). Returns: composite z-score for each item.
1. CC1=C([C@H](O)CCc2ccccc2)[C@H](CO)n2c(=O)n(-c3ccccc3)c(=O)n2C1
2. O=C(NCCN1CCOCC1)[C@@H]1c2ccccc2C(=O)N(Cc2ccc(OC(F)(F)F)cc2)[C@H]1c1ccc(CO)cc1
3. COCCOC(=O)N1C(=O)[C@@]2(c3cc(C#CCNC(N)=O)ccc31)[C@H](C(=O)Nc1nc3ccccc3s1)[C@H]1C(=O)O[C@H](c3ccccc3)[C@H](c3ccccc3)N1[C@@H]2c1ccccc1OCCO
4. COC(=O)[C@@]1(Cc2ccccc2)[C@H]2c3cc(C(=O)N(C)C)n(CCSC(=N)N)c3C[C@H]2CN1C(=O)c1ccccc1
5. CN(C)CCCNC(=O)[C@@]1(C)c2ccccc2C(=O)N(Cc2ccc(OC(F)(F)F)cc2)[C@H]1c1ccc(CO)cc1
6. COc1ccc([Si](C)(C)[C@@H]2[C@@H](CC(=O)N3Cc4ccccc4C[C@H]3CO)O[C@]3(C(=O)N(Cc4cccc(N5CCOC5=O)c4)c4ccccc43)[C@H]2C)cc1

[0.754, -0.103, 0.634, 0.903, 0.778, 0.672]

Parameters: items (list). Returns: composite z-score for each item.
1. C[N+](C)(C)CCCCNC(=O)[C@H]1C[C@H]2C(=O)N[C@@H](Cc3ccccc3)C(=O)N2[C@H]1c1cccc(OCCO)c1
2. C=C(/C(=C/C[C@@H](OC(C)=O)c1cccc(OCCO)c1)c1cnc2ccccc2c1)C(C)C
3. CCOC(=O)c1cn(C[C@H](Cc2ccccc2)NC(=O)N[C@H](CO)CCc2oc(C(C)=O)c(C(=O)OC)c2C(=O)OC)nn1

1: 0.696; 2: 0.725; 3: 0.635

* * *

procedure.details: plasmodial surface anion channel blockers, osmotic lysis – cell-based, P. falciparum Indochina, OD700, 1 h, primary screen (AID 1154)
condition.details: P. falciparum Indochina infected RBC osmotic lysis, higher = more signal, called active from +8 up or from −8 down
Provide the reported z-score of each item.
Answers are plain numbers.

Study these solved cases before continuing.
[
  {
    "compound": "CCOc1cc(C(O)C2C=CC3C(=O)N(c4ccccc4)C(=O)C3N2Nc2ccccc2F)ccc1O (stereo unspecified)",
    "z-score": 6.56
  },
  {
    "compound": "C=C(CCCC)/C(=C/C[C@H](OC(=O)c1ccncc1)c1ccccc1OCCO)c1cc(C(=O)OC)ccc1OC",
    "z-score": 23.6
  },
  {
    "compound": "O=C1[C@H]2C=C(I)[C@H](C[C@@H]2c2ccccc2)[C@@]12CO2",
    "z-score": 0.613
  },
  {
    "compound": "COC(=O)C(CC#Cc1ccc2c(c1)[C@]1(C(=O)N2)[C@H](C(=O)NC[C@H](O)c2ccccc2)[C@H]2C(=O)O[C@H](c3ccccc3)[C@H](c3ccccc3)N2[C@@H]1c1ccccc1OCCO)C(=O)OC",
    "z-score": 4.2
  },
  {
    "compound": "CCN(CC)c1ccc(N2CC=CC34O[C@@H]5C=CCCOC(=O)C5[C@H]3C(=O)N(C(C)CO)[C@@H]4C2=O)cc1 (stereo partly specified)",
    "z-score": 3.66
  },
  {
    "compound": "CCOC(=O)C1=CC[C@@H](c2ccc(OC)cc2)N(S(=O)(=O)c2ccc(C)cc2)[C@H]1CC",
    "z-score": 2.22
  }
]

Parameters: items (list). Returns: z-score for each item.
1. CCOC(=O)C[C@H]1[C@H](OC(=O)c2ccccc2-c2ccccc2)[C@@H](NC(=O)C2CCCCC2)c2cc(OCCCO)ccc2N1C(=O)c1ccc2ccccc2n1
2. CC(=O)OCC1C2CC[C@H]3C(OCc4ccc(F)cc4C(F)(F)F)OC[C@]4(C)[C@H]3C2=C(CN4C(=O)OC(C)(C)C)[C@H](C)C1COC(C)=O (stereo partly specified)
3. COc1ccc(NN2C(C(O)c3ccc(I)cc3)C=CC3C(=O)N(C4CCCCC4)C(=O)C32)cc1 (stereo unspecified)
4. CC1CC/C=C\[C@H]2OC34C=CCN(C(C)(C)C)C(=O)[C@H]3N(CCCO)C(=O)[C@@H]4C2C(=O)O1 (stereo partly specified)
5. O=C1N(Cc2ccccc2)c2ccccc2C[C@@]12COC(c1ccc(OCCCO)cc1)=N2

1. 3.85
2. 1.07
3. 3.84
4. -0.022
5. 25.5

// data source = PubChem BioAssay
